target: human PAD4 (hPAD4) (Homo sapiens (Human)); assay: RFMS Human PAD4 Functional Assay; conditions: rapid-fire mass spectrum (RFMS) assay; 5 nM hPAD4 enzyme, 250 μM BAEE, 30 min preincubation at 37° C.
Sequence (Q9UM07 whole entry): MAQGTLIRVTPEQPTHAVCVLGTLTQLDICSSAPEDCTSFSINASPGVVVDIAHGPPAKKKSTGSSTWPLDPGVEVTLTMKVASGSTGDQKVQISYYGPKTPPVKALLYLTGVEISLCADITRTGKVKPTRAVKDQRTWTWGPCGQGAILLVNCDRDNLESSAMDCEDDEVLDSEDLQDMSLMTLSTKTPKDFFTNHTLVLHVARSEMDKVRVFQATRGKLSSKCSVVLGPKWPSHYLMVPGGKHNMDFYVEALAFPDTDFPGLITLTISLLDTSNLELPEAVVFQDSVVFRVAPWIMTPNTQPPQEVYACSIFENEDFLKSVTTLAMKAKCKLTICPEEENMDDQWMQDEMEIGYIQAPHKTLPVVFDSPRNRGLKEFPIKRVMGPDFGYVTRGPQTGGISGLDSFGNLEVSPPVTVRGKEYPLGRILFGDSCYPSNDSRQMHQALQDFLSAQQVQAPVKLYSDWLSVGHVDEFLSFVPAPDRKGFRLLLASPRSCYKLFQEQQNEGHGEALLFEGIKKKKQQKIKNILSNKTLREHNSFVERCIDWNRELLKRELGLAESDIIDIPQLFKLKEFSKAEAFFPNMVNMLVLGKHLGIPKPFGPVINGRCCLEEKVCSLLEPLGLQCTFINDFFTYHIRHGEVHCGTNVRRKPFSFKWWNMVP
pIC50: −log10 of the molar value.

# compound, pIC50
measured = [
    ("COc1cc(C(=O)N2C[C@H]3CC[C@@H]2[C@@H]3N)cc2nc3n(c12)Cc1cccc(c1)[C@H](O)[C@H](O)CCCCn1c-3cc2cccnc21 (single isomer, unassigned) [Example 45]", 7.51),
    ("COc1cc(C(=O)N2C[C@H](N)C[C@@H](F)C2)cc2nc3n(c12)Cc1cc(C#N)cc(c1)-c1ccccc1CCCCn1c-3cc2cccnc21", 7.68),
    ("COc1cc(C(=O)N2C[C@H](N)C[C@@H](F)C2)cc2nc3n(c12)Cc1ccn(n1)-c1ccccc1OCCCn1c-3cc2cccnc21", 8.05),
    ("COc1cc(C(=O)N2C[C@H]3CC[C@@H]2[C@@H]3N)cc2nc3n(c12)Cc1cccc(c1)[C@H](O)[C@H](O)CCCCn1c-3cc2cccnc21 (relative stereo) [Example 47]", 7.06),
    ("COc1cc(C(=O)N2CC3CCC2[C@@H]3N)cc2nc3n(c12)Cc1cnn(c1)-c1ccccc1OCCCn1c-3cc2cccnc21 (some centres unmarked)", 7.82),
    ("COc1cc(C(=O)N2C[C@H](N)C[C@@H](F)C2)cc2nc3n(c12)Cc1ccn(n1)-c1ccccc1OCCCn1c-3cc2ccccc21", 7.89),
    ("COc1cc(C(=O)N2C[C@H]3CC[C@@H]2[C@@H]3N)cc2nc3n(c12)Cc1cncc(c1)-c1ccccc1CCCCn1c-3cc2ccc(C(C)(C)O)nc21", 7.85),
    ("COc1cc(C(=O)N2C[C@H](N)C[C@@H](F)C2)cc2nc3n(c12)Cc1cnn(c1)CCCCCCCn1c-3cc2ccccc21", 7.43),
]
